Origin of measurements: patent US20200055817A1

Biological target: human EDG8 (S1PR5) receptor (Homo sapiens, UniProt Q9H228)
Construct: carries the transgenes human EDG8 (S1PR5) receptor (Acession number NP_110387.1)
Sequence (Q9H228 whole entry): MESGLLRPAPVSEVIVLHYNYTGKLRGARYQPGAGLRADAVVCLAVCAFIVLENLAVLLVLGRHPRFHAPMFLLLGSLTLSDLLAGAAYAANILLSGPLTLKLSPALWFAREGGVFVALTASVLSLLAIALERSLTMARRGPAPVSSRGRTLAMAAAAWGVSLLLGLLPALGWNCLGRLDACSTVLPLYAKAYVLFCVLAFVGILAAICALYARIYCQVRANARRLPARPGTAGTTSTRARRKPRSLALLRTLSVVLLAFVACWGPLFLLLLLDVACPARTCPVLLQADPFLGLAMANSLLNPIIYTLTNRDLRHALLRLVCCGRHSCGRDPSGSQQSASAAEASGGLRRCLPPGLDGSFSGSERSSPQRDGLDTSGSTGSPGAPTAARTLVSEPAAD
Assay: Aequorin assay, agonist potency, CHO-A21-EDG8#12 cells
Conditions: agonist mode, aequorin luminescence; read-out: S1P5 EC50 range #
Structures can show the parent of a compound that is named as a salt.
Below is a list of entries, each paired with its recorded EC50 value.

# Molecule, EC50
measured = [
    ("O=C(O)CN1CC2(Cc3ccc(OCc4ccccc4C(F)(F)F)cc3C2)C1 [Example 12]", "10 to 100 nM"),
    ("CCc1cccc(Cl)c1COc1ccc2c(c1)CC1(C2)CN(CCC(=O)O)C1 [Example 7, hydrochloride]", "≤ 10 nM"),
    ("O=C(O)CN1CC2(Cc3ccc(OCc4c(Cl)cccc4C(F)(F)F)cc3C2)C1 [Example 20]", "≤ 10 nM"),
    ("O=C(O)C1(CN2CC3(Cc4ccc(-c5ccc(OCc6ccc(Cl)cc6)cc5)cc4C3)C2)CC1 [Example 108]", "10 to 100 nM"),
]

Form field EC50 for item CCCCc1ccc(COc2ccc3c(c2)CC2(C3)CN(CC(=O)O)C2)c(Cl)c1 [Example 3] on human EDG8 (S1PR5) receptor (Homo sapiens, UniProt Q9H228): 1000 to 10000 nM

* * *

Biological target: human EDG1 (S1PR1) receptor (Homo sapiens, UniProt P21453)
Sequence (P21453 whole entry): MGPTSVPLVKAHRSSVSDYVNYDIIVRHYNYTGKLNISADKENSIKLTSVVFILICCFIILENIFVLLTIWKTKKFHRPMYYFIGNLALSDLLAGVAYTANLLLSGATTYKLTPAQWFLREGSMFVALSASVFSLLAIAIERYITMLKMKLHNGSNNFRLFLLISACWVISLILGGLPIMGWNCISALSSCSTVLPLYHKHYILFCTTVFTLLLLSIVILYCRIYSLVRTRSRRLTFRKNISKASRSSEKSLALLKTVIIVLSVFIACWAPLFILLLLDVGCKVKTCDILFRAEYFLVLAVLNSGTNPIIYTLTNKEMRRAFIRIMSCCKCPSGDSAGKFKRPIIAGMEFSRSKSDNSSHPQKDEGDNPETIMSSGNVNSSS
Assay: Aequorin assay, agonist potency, CHO-A21-Edg1#17 cells
Details: agonist mode, aequorin luminescence; read-out: S1P1 EC50
Protocol: Agonistic activity was measured as described below. […] 18 hours prior to the test, vials of frozen cells are quickly thawed in a 37° C. water bath, cells are recovered by centrifugation and resuspended in assay buffer (DMEM/HAM's F12 with HEPES, without phenol red+0.1% fatty acid-free BSA). […] Cells are then placed in the luminescence reader (Hamamatsu Functional Drug Screening System 6000, FDSS6000). […] The resulting emission of light is recorded for 90 seconds using the FDSS6000. […]
pEC50: −log10 of the molar value. Where a name gives a salt, the structure may show the parent alone.
Property name: pEC50

Previously resolved entries follow.
# Compound, Study system, Result
data = [
    ("O=C(O)CN1CC2(Cc3ccc(OC4Cc5ccccc5C4)cc3C2)C1", "human EDG1 (S1PR1) receptor (Homo sapiens, UniProt P21453)", "< 6.00"),
    ("CC(Oc1ccc(C#Cc2ccc3c(c2)CC2(C3)CN(CC3(C(=O)O)CC3)C2)cn1)C(F)(F)F (stereo not drawn)", "human EDG1 (S1PR1) receptor (Homo sapiens, UniProt P21453)", "> 6.00"),
    ("CC(Oc1ccc(C#Cc2ccc3c(c2)CC2(C3)CN(C3CC(C(=O)O)C3)C2)cn1)C(F)(F)F (stereo not drawn)", "human EDG1 (S1PR1) receptor (Homo sapiens, UniProt P21453)", "> 6.00"),
]

The compound listed as CC(C)Oc1ccc(C#Cc2ccc3c(c2)CC2(C3)CN(C3CC(C(=O)O)C3)C2)cn1 (stereo not drawn) has a reported pEC50 of > 6.00

O=C(O)C1CC(N2CC3(Cc4ccc(OCc5ccc(OCC6CC6)cc5)cc4C3)C2)C1 (stereo not drawn) has a reported pEC50 of < 6.00

The reported pEC50 of the compound CC(C)Oc1ccc(C#Cc2ccc3c(c2)CC2(C3)CN(C3CC(C(=O)O)C3)C2)cc1 (stereo not drawn) was > 6.00

Reported pEC50 ( "O=C(O)CN1CC2(Cc3ccc(OCCc4ccccc4)cc3C2)C1" ) = < 6.00

Kindly note the recorded pEC50 for "O=C(O)CN1CC2(Cc3ccc(OCc4c(F)cccc4C(F)(F)F)cc3C2)C1" , which is < 6.00

pEC50 reported for this compound COc1ccc(C#Cc2ccc3c(c2)CC2(C3)CN(C3CC(C(=O)O)C3)C2)c(C)c1 (stereo not drawn) : < 6.00

Briefly, pEC50 measured for "O=C(O)CN1CC2(Cc3ccc(OCc4c(Cl)cccc4C4CC4)cc3C2)C1" : < 6.00

Recorded pEC50 (compound "O=C(O)C1(CN2CC3(Cc4ccc(OCc5c(F)cccc5C5CC5)cc4C3)C2)CC1" ): < 6.00

Summary for this compound, "COc1ccc(C#Cc2ccc3c(c2)CC2(C3)CN(CC3(C(=O)O)CC3)C2)c(C)c1" : pEC50 is < 6.00

Field pEC50 (entry "O=C(O)C1(CN2CC3(Cc4ccc(OCCc5ccc(F)cc5)cc4C3)C2)CC1" ) reads < 6.00

// field: pEC50; key: "Cc1cccc(F)c1COc1ccc2c(c1)CC1(C2)CN(CC(=O)O)C1" ; value = < 6.00

Item: "COc1ccc(COc2ccc3c(c2)CC2(C3)CN(CC3(C(=O)O)CC3)C2)c(C)n1" | pEC50: < 6.00

The reported pEC50 of the compound "O=C(O)CN1CC2(Cc3ccc(OCc4c(F)cccc4F)cc3C2)C1" was < 6.00

The compound CCOc1ccc(COc2ccc3c(c2)CC2(C3)CN(C3CC(C(=O)O)C3)C2)c(F)c1F (stereo not drawn) showed pEC50 equal to < 6.00

// pEC50 lookup, compound = "O=C(O)C1(CN2CC3(Cc4ccc(-c5ccc(OCc6cccc(F)c6)cc5)cc4C3)C2)CC1" , result: < 6.00

According to the records, this compound "O=C(O)C1(CN2CC3(Cc4ccc(OCC5CCCCC5)cc4C3)C2)CC1" displays pEC50 of < 6.00

Form: compound = "O=C(O)CN1CC2(Cc3ccc(OCCOc4ccccc4)cc3C2)C1" ; pEC50 = < 6.00

So, CCc1cccc(Cl)c1COc1ccc2c(c1)CC1(CCN(CC(=O)O)CC1)C2 [Example 161, hydrochloride] ? Its pEC50 was < 6.00

The recorded pEC50 for entry CC1CCC(C#Cc2ccc3c(c2)CC2(C3)CN(CC3(C(=O)O)CC3)C2)CC1 (mixture of isomers) equals < 6.00
